studyTarget: GD3-Siglec-7EcFc interaction (Homo sapiens)
Construct: the extracellular domain of Siglec-7 fused with the human IgG1 Fc region
Sequence (Q9Y286 19-353 limits assumed): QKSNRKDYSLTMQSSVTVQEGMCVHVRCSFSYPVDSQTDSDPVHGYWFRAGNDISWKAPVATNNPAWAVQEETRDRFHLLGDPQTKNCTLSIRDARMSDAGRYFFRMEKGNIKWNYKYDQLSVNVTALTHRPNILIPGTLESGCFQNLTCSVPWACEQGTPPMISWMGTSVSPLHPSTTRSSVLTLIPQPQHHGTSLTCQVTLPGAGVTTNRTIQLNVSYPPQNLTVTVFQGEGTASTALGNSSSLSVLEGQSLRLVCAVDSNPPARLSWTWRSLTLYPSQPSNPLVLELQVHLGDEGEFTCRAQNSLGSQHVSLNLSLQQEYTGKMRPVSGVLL
assayDetails: Inhibition of GD3-Siglec-7EcFc binding (ELISA, double reciprocal plots)
testConditions: octyl glycosides, 0–200 μM; GD3-coated plate
recordedEndpoint: IC50

Ask: Entry CCCCCCCCOC1(C(=O)O)CC(O)C(NC(C)=O)C(C(O)C(CO)OC2(C(=O)O)CC(O)C(NC(C)=O)C(C(O)C(CO)OC3(C(=O)O)CC(O)C(NC(C)=O)C(C(O)C(O)CO)O3)O2)O1 (stereo not shown) has what IC50?
Result: < 100 µM

Provenance of the data: paper PMC7250851
